Cited source: paper PMC5779224

Below: a set of entries, each annotated with reported Kd.
Target: T1, AnkB 28–965 (MBD + AI-c + AI-b) (human, UniProt Q01484-2 28-965)
T1 chain: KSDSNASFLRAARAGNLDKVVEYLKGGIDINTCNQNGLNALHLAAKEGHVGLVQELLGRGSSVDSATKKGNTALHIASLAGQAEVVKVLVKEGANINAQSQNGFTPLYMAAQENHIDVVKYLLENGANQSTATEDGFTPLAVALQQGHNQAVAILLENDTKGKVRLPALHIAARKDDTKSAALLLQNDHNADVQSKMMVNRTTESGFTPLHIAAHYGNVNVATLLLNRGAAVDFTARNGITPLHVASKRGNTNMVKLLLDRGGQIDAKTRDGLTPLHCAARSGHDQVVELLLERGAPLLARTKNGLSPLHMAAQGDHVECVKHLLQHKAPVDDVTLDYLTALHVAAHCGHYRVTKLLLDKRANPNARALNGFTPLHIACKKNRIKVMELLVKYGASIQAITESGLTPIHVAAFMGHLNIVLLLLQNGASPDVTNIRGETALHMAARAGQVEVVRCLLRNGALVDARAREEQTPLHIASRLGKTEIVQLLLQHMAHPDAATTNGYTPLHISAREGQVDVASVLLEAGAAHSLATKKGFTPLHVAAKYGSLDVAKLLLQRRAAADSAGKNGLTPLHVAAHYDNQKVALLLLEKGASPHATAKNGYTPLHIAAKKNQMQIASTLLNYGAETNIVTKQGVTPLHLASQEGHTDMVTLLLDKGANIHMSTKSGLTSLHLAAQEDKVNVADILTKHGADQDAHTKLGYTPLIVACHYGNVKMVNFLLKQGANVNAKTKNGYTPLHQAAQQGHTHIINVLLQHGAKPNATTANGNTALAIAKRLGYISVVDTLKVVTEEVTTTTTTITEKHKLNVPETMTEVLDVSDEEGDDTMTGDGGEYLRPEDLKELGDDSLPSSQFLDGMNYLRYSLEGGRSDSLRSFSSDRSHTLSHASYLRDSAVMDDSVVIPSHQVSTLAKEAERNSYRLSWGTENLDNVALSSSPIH
Assay: ITC
Quick note: give the figure in µM, leave out the unit.

>>> result("SDDSLVDYGEGGEGQFNEDGSFIGQYTV (domain or fragment) [NF186 (aa 1187–1214)]")
23

Lab note: next binder to report on.
Could you tell me which Kd is on file for Nav1.2 (aa 1035–1129) (domain or fragment) KALDEIKPLEDLNNKKDSCISNHTTIEIGKDLNYLKDGNGTTSGIGSSVEKYVVDESDYMSFINNPSLTVTVPIAVGESDFENLNTEEFSSESDM ?
5.8
